Tested on: HT29 colon
assay.comment: NCI tumour cell line growth inhibition, 48 h
Quick reference for TGI among some compounds

Please review the entries below; each comes with its answer.
1. FC(F)(F)c1cc(NC2=NCCN=C(Nc3cc(C(F)(F)F)cc(C(F)(F)F)c3)SS2)cc(C(F)(F)F)c1 | 14.1 µM
2. N#C/C(=C\c1cccnc1)c1nc2ccccc2o1 | > 100 µM
3. CC(=O)OCC(OC(C)=O)C(OC(C)=O)C(OC(C)=O)C(=O)CNn1c(-c2ccccc2Cl)nc2ccc(Br)cc2c1=O (centres undefined) | > 100 µM
4. CCOC(=O)CCC(C(=O)OCC)n1nnc2cc(Nc3c(C)[n+]([O-])c4ccc(Cl)cc4[n+]3[O-])ccc21 (centres undefined) | > 100 µM
5. c1ccc(-c2cnc3nc4ccccc4nc3n2)cc1 | 35.5 µM

Quote TGI with test system HT29 colon for O=C(c1ccccc1)c1ccccc1C(=O)c1ccccc1
> 100 µM

Quote TGI with test system HT29 colon for O=c1c(-c2ccc(O)cc2)coc2cc(O)cc(O)c12
> 100 µM

Quote TGI with test system HT29 colon for N#Cc1ccc2c(c1)C(=O)c1c-2n(CCCN=[N+]=[N-])c(=O)c2cc([N+](=O)[O-])ccc12
> 50 µM

Quote TGI with test system HT29 colon for Cc1cc(S(=O)(=O)Nc2nc3cc(-c4ccsc4)sc3c(=O)n2N)c(S)cc1Cl
> 100 µM

Quote TGI with test system HT29 colon for CCOC(=O)C1=C(C)N(c2ccc(C)cc2)C2(O)C=CC(=O)C3=C(O)c4ccccc4C(=O)C312 (centres undefined)
65.9 µM

---

Quick reference for TGI among some compounds
Tested on: SF-539 CNS
assay.comment: NCI tumour cell line growth inhibition, 48 h
Numeric only. Scale: µM

Please review the entries below; each comes with its answer.
1. CS(=O)(=O)Nc1cc(-c2ccc3ncnc(Nc4cccc(Cl)c4F)c3c2)cnc1Cl | 7.98
2. COc1cc2c(cc1O)CC[C@@H]1C2CC[C@@]2(C)C1CC[C@@H]2O (stereo partly specified) | 4.2

Quote TGI with test system SF-539 CNS for CC(=O)O[C@H](C[C@H](C(C)C)N(C)C(=O)[C@@H](NC(=O)[C@H]1CCCCN1C)C(C)(C)C)c1nc(C(=O)N[C@@H](Cc2ccccc2)C[C@H](C)C(=O)O)cs1
0.0046

Quote TGI with test system SF-539 CNS for O=C(C=P(c1ccccc1)(c1ccccc1)c1ccccc1)c1ccc(-c2ccc(F)cc2F)cc1
10.8

Quote TGI with test system SF-539 CNS for COc1ccc(C2=NNC(=O)c3ccccc3N2c2nc(-c3cccs3)nc3ccc(Br)cc23)cc1
39.3

---

System: SR leukemia
assay.comment: NCI tumour cell line growth inhibition, 48 h; in the data active = GI50 below about 0.43 µM; inactive = the rest
Result category, one only: true for active, false for inactive

1. O=c1[nH]cnc2nc(-c3ccc(N(CCCl)CCCl)cc3)[nH]c12 | false
2. N#CC1CCc2c(c(-c3cn[nH]c3C(F)(F)F)nc3c(F)cc4[nH]ncc4c23)C1 (stereo not given) | false

Okay, next one:
Tell me the recorded outcome of this test for O[C@H](CN1CC1)[C@@H](O)CN1CC1 .
false

---

Tested on: HCT-116 colon
assay.comment: NCI tumour cell line growth inhibition, 48 h
Quick reference for TGI among some compounds

1) CN(C)C=Nc1nncc2n[nH]nc12 | > 100 µM
2) COc1cc(CC2CC(c3ccc4c(c3)OCO4)OC2=O)cc(OC)c1OC (centres undefined) | > 100 µM

Quote TGI with test system HCT-116 colon for Cc1ccc(S(=O)(=O)c2ccsc2N)cc1
> 100 µM

Quote TGI with test system HCT-116 colon for CSc1ccccc1P(CCP(c1ccccc1SC)c1ccccc1SC)c1ccccc1SC
> 100 µM

Quote TGI with test system HCT-116 colon for C[C@H]1CCC/C=C/[C@@H]2C[C@H](O)C[C@H]2[C@H](O)[C@@H](SC2OC(CO)C(O)C(O)C2O)CC(=O)O1 (some centres undefined)
> 100 µM

Quote TGI with test system HCT-116 colon for COC(=O)c1nn(C(=N)c2ccc(Cl)cc2)c2c1CCCCC2
> 100 µM

Quote TGI with test system HCT-116 colon for C=C(C)[C@@H]1CC[C@]2(C)[C@H](CC=C3[C@@H]4[C@H](C)[C@@H](C)CC[C@]4(CO)CC[C@]32C)[C@@]1(C)CCCN
1.54 µM

Quote TGI with test system HCT-116 colon for O=C(Nc1ccccc1C(=O)O)C(=O)C(C(=O)c1ccccc1-c1ccccc1)C1OC(=O)c2ccccc21 (centres undefined)
36.5 µM

Quote TGI with test system HCT-116 colon for COc1cc(-c2[o+]c3cc(O)cc(OC4OC(CO)C(O)C(O)C4O)c3cc2OC2OC(CO)C(O)C(O)C2O)cc(OC)c1O (centres undefined)
> 100 µM

---

Quick reference for TGI among some compounds
Tested on: KM12 colon
assay.comment: NCI tumour cell line growth inhibition, 48 h

1) O=C(Nc1ccc(-c2ccnc(Nc3ccc(N4CCOCC4)cc3)n2)cc1)C1CCCN1 (centres undefined) | 27.3 µM
2) Cc1cccc2c1C(=O)[C@@](C)([C@]1(C)Nc3cccc(C)c3C1=O)N2 | > 100 µM
3) O=C1C(=Cc2ccccc2[N+](=O)[O-])N=C(c2ccccc2)N1n1c(-c2ccccc2)nc2ccccc2c1=O | 66.2 µM
4) O=C1NC(O)CCN1C1CC(O)C(CO)O1 (centres undefined) | > 100 µM
5) Cn1c(O)c(N=NC(N)=S)c2ccccc21 | > 100 µM

Find the measured TGI of CCC1OC(/C(C)=C/C(C)/C=C/C2C(C)C2/C=C/C2OC(CC(=O)O)CC(O)C2O)CC=C1C (centres undefined) and report it.
> 50 µM

Find the measured TGI of CC1(C)CC(=O)C(=CN2C(=O)CNC2=S)C(=O)C1 and report it.
> 100 µM

Find the measured TGI of c1cc2ccc1CNCCN1CCNCc3ccc(cc3)Oc3ccc(cc3)CNCCN(CCNCc3ccc(cc3)O2)CCNCc2ccc(cc2)Oc2ccc(cc2)CNCC1 and report it.
3.22 µM

Find the measured TGI of COc1cc(C(=O)C/C(CCC(=O)Nc2ccc(Cl)cc2Cl)=N/Nc2nnc(C)n2N)ccc1O and report it.
> 100 µM

---

System: SW-620 colon
assay.comment: NCI tumour cell line growth inhibition, 48 h; in the data active = GI50 below about 0.43 µM; inactive = the rest
Result category, one only: active, inactive

1) C=C1C(=O)O[C@H]2[C@H]1CC/C(COC(=O)/C=C/c1c[nH]c3ccccc13)=C\CC[C@@]1(C)O[C@@H]21 | active

Tell me the recorded outcome of this test for N#Cc1ncc(N2C(=O)C3(CCC3)N(c3ccc(OC4CCNCC4)nc3)C2=S)cc1C(F)(F)F .
inactive

Tell me the recorded outcome of this test for CC(=O)O[C@H](C[C@H](C(C)C)N(C)C(=O)[C@@H](NC(=O)[C@H]1CCCCN1C)C(C)(C)C)c1nc(C(=O)N[C@@H](Cc2ccccc2)C[C@H](C)C(=O)O)cs1 .
active

Tell me the recorded outcome of this test for CC(C)(F)C[C@H](N[C@@H](c1ccc(-c2ccc(S(C)(=O)=O)cc2)cc1)C(F)(F)F)C(=O)NC1(C#N)CC1 .
inactive

---

Quick reference for TGI among some compounds
Tested on: HCT-15 colon
assay.comment: NCI tumour cell line growth inhibition, 48 h

1. N[C@H](C(=O)O)[C@@H](Cl)CC(=O)O | > 100 µM
2. Cn1c(=O)c2[nH]c(CCC(=O)O)nc2n(C)c1=O | > 100 µM
3. COC(=O)C1[C@H](C(=O)OC)C1(Br)CBr (stereo not given in full) | > 100 µM
4. CCCC(=O)OC1CC(n2cc(F)c(=O)[nH]c2=O)OC1CO (stereo not given) | > 10 µM
5. O=C1C(=Cc2ccccc2[N+](=O)[O-])N=C(c2ccccc2)N1n1c(-c2ccccc2)nc2ccccc2c1=O | > 100 µM
6. O=C(Nc1ccccc1C(=O)Nc1nccs1)c1ccccc1 | > 100 µM
7. CC(=O)NS(=O)(=O)c1ccc(-n2nc(-c3ccccc3)cc2C2=CC(=O)C=CC2=O)cc1 | > 100 µM
8. N#CC1CCc2c(c(-c3cn[nH]c3C(F)(F)F)nc3c(F)cc4[nH]ncc4c23)C1 (stereo not given) | > 100 µM

Quote TGI with test system HCT-15 colon for COc1cc(CC2CC(c3ccc4c(c3)OCO4)OC2=O)cc(OC)c1OC (stereo not given)
> 100 µM

Quote TGI with test system HCT-15 colon for Cc1ccc(SCC(O)=C2C(=O)CCCC2=O)cc1
> 100 µM

Quote TGI with test system HCT-15 colon for FC(F)(F)c1cc(NC2=NCCN=C(Nc3cc(C(F)(F)F)cc(C(F)(F)F)c3)SS2)cc(C(F)(F)F)c1
14.2 µM

Quote TGI with test system HCT-15 colon for O=C1OC(c2ccccc2)=N/C1=C/N1CCCC1C(=O)O (stereo not given)
> 100 µM

Quote TGI with test system HCT-15 colon for COc1ccc(N2C(=O)C(N3C(=O)C=CC3=O)C2C=O)cc1 (stereo not given)
> 100 µM

The measurements presented in this section are drawn from PubChem BioAssay (NCI).
